Below is a list of entries, each paired with its recorded EC50 of antibody induced ADCC effect on SKOV3 value.
Target: T1, human CD276 protein (human, UniProt Q5ZPR3 29-534)
T1 sequence (looked up): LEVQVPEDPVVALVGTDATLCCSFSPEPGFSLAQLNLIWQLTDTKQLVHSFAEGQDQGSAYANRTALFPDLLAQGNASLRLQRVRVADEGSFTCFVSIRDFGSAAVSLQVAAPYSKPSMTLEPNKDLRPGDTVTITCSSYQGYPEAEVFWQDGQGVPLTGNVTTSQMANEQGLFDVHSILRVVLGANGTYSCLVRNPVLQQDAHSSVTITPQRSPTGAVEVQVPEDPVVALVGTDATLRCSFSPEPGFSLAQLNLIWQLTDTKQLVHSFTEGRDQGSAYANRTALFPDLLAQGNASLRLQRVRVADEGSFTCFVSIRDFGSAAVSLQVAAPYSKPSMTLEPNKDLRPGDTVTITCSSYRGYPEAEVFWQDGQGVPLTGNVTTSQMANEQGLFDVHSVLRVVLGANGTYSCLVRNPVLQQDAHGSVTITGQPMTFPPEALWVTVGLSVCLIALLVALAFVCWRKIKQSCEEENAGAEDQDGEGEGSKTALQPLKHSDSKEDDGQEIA
Experiment: cell-based or functional assay
readout: EC50 of antibody induced ADCC effect on SKOV3 (µg/mL)

binder	u	numeric readout
22-E11-C3-F2 (human IgG1 chimeric antibody) (antibody, V domains shown, human IgG1 chimeric antibody of the mouse clone) VH: QIQLVQSGPELKRPGETVKISCKASGYSFTNYGMNWVKQAPGKGLKWMGWINPYTGEPTYADDFKGRFAMSLETSASAAYLQINNLKNEDMATYFCGRDDGYHYTMNYWGQGTSVTVSS VL: DVVMTQPPLSLPVSLGDQASISCRSSQSLIHSNGDTYLHWYLQKPGQSPKLLIYKVSIRFSGVPDRFSGSGSGTDFTLKISRVEAEDLGVYFCSQSTYVPWTFGGGTKLEIK	µg/mL	0.0179
30-C7-C11-D4 (human IgG1 chimeric antibody) (antibody, V domains shown, human IgG1 chimeric antibody of the mouse clone) VH: EVQLVESGPGLVKPSQSLSLTCTVTGYSITSDYAWNWIRQFPGNKLEWMGYISHSGSTSYNPSLKSRISITRDTSKNQFFLQLNSVTTEDTATYYCARSLGRRWYFDVWGAGTTVTVSS VL: DIVMTQSPSSLAMSVGQKVTLSCKSSQSLLNSSTQKNYLAWYQQKPGQSPKLLVYFASTRDSGVPDRFIGSGSGTEFTLTISSVQAEDLADYFCQQHYIIPFTFGAGTKLEIK	µg/mL	0.0327
10-B9-D10-A12 (human IgG1 chimeric antibody) (antibody, V domains shown, human IgG1 chimeric antibody of the mouse clone) VH: EVQLQESGPELVRPGVSVKISCKGSGYTFTDYTMHWVKLSHAKSLEWIGVISTYYGNTNYNQKFKGKATLTVDKSSSTAYMELARLTSEDSAIYYCARASYGSGYGPYYWYFDVWGAGTTVTVSS VL: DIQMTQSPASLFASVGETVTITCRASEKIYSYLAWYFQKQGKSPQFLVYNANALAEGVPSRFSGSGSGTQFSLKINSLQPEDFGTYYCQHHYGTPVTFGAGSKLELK	µg/mL	0.259

These measurements were taken from patent US20240400689A1.
